target: Serine/threonine-protein kinase ULK1 (Homo sapiens); test: Induction of ULK1-mediated autophagy in human SH-SY5Y cells at 1 uM after 6 hrs by MDC-staining based flow cytometric analysis relative to control; type: cell-based

molecule: Cc1ccc(NC(=O)N[C@@H](C(=O)Nc2cccc(Br)c2)c2ccccc2)cc1
unit_spec: %
Activity: 25.4
//
molecule: COc1ccc(N2CCN(CC(OC(=O)c3cccc(C(F)(F)F)c3)c3ccccc3)CC2)cc1 (centres undefined)
unit_spec: %
Activity: 11.6
//
molecule: COc1ccc(CCNC(=O)N[C@@H](C(=O)Nc2ccc(C(F)(F)F)cc2)c2ccccc2)cc1OC
unit_spec: %
Activity: 33.5
//
molecule: COc1ccc(CC(=O)OC(CN2CCN(C)CC2)c2ccccc2)cc1OC (centres undefined)
unit_spec: %
Activity: 6.22

====

target: Serine/threonine-protein kinase ULK1 (Homo sapiens) (UniProt O75385); assay: Induction of ULK1-mediated autophagy in human SH-SY5Y cells at 1 uM after 6 hrs by MDC-staining based flow cytometric analysis relative to control; assay type: cell-based
Listing of entries alongside the reported Activity.
test_readout: Activity (%)

molecule: COc1ccc(N2CCN(CC(OC(=O)c3ccc(-c4ccccc4)cc3)c3ccccc3)CC2)cc1 (stereo not given)
target_under_test: Serine/threonine-protein kinase ULK1 (Homo sapiens) (UniProt O75385)
unit_spec: %
observed_measurement: 9.2
//
molecule: O=C(Nc1cccc2ccccc12)N[C@@H](C(=O)Nc1cc(F)ccc1F)c1ccccc1
target_under_test: Serine/threonine-protein kinase ULK1 (Homo sapiens) (UniProt O75385)
unit_spec: %
observed_measurement: 22.3
//
molecule: Cc1ccc(NC(=O)N[C@@H](C(=O)Nc2cc(F)ccc2F)c2ccccc2)cc1
target_under_test: Serine/threonine-protein kinase ULK1 (Homo sapiens) (UniProt O75385)
unit_spec: %
observed_measurement: 24
//
molecule: O=C(Nc1ccccc1Cl)N[C@@H](C(=O)Nc1cccc(Br)c1)c1ccccc1
target_under_test: Serine/threonine-protein kinase ULK1 (Homo sapiens) (UniProt O75385)
unit_spec: %
observed_measurement: 26.3
//
molecule: C[C@@H](NC(=O)[C@H](NC(=O)Nc1cccc(Cl)c1)c1ccccc1)c1ccccc1
target_under_test: Serine/threonine-protein kinase ULK1 (Homo sapiens) (UniProt O75385)
unit_spec: %
observed_measurement: 22.7
//
molecule: C[C@@H](NC(=O)[C@H](NC(=S)Nc1ccccc1)c1ccccc1)c1ccccc1
target_under_test: Serine/threonine-protein kinase ULK1 (Homo sapiens) (UniProt O75385)
unit_spec: %
observed_measurement: 32.2
//
molecule: COc1ccc(NC(=O)N[C@@H](C(=O)N[C@H](C)c2cc(F)ccc2F)c2ccccc2)cc1
target_under_test: Serine/threonine-protein kinase ULK1 (Homo sapiens) (UniProt O75385)
unit_spec: %
observed_measurement: 30.9
//
molecule: Cc1ccccc1NC(=O)[C@H](NCCc1ccc(N(C)C)cc1)c1ccccc1
target_under_test: Serine/threonine-protein kinase ULK1 (Homo sapiens) (UniProt O75385)
unit_spec: %
observed_measurement: 13.5
//
molecule: O=C(Nc1ccc(C(F)(F)F)cc1)N[C@@H](C(=O)Nc1cc(F)ccc1F)c1ccccc1
target_under_test: Serine/threonine-protein kinase ULK1 (Homo sapiens) (UniProt O75385)
unit_spec: %
observed_measurement: 43.6
//
molecule: Cc1cccc(C)c1NC(=O)N[C@@H](C(=O)N[C@H](C)c1ccccc1)c1ccccc1
target_under_test: Serine/threonine-protein kinase ULK1 (Homo sapiens) (UniProt O75385)
unit_spec: %
observed_measurement: 16.2

====

Listing of entries alongside the reported Activity.
Biological target: Serine/threonine-protein kinase ULK1 (Homo sapiens) (UniProt O75385)
Sequence (whole entry): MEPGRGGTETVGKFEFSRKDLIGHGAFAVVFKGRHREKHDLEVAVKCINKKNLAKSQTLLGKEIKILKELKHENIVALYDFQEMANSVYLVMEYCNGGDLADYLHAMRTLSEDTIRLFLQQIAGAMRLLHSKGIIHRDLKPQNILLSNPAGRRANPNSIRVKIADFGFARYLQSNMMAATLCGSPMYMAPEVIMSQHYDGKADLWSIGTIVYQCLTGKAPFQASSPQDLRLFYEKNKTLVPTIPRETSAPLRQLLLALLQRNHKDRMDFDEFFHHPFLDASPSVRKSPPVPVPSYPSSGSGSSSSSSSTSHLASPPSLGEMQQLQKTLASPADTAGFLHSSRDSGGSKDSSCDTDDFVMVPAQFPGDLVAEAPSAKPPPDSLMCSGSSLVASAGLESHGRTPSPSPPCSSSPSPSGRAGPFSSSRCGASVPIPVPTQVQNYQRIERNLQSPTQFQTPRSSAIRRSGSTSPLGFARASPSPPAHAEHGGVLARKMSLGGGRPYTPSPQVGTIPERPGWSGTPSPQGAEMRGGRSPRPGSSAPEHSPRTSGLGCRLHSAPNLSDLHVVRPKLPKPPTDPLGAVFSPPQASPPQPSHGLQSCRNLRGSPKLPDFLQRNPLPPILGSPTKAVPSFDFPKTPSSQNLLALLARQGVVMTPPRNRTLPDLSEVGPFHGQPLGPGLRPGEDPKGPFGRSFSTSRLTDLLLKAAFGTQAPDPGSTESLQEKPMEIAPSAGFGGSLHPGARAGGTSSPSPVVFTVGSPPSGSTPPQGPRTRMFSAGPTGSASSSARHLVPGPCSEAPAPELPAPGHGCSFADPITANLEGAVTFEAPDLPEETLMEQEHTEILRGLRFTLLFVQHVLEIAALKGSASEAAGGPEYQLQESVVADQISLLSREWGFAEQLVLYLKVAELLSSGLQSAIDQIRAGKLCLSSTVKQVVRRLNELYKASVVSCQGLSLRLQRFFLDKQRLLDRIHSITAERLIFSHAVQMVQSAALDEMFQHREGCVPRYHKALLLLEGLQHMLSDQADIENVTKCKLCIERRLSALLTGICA
Test: Induction of ULK1-mediated autophagy in human SH-SY5Y cells at 1 uM after 6 hrs by MDC-staining based flow cytometric analysis relative to control
Type: cell-based
test_readout: Activity (%)

molecule: COc1ccc(CCN[C@@H](C(=O)Nc2ccccc2C)c2ccccc2)cc1OC
unit_spec: %
observed_measurement: 18.1
--
molecule: CN1CCN(CC(OC(=O)c2cccc(Br)c2)c2ccccc2)CC1 (stereo unspecified)
unit_spec: %
observed_measurement: 11.4
--
molecule: O=C(Nc1ccccc1Cl)N[C@@H](C(=O)Nc1cc(F)ccc1F)c1ccccc1
unit_spec: %
observed_measurement: 19.6
--
molecule: O=C(Nc1cccc2ccccc12)N[C@@H](C(=O)Nc1cccc(Br)c1)c1ccccc1
unit_spec: %
observed_measurement: 24.6
--
molecule: Cc1ccccc1NC(=O)[C@H](NCCc1ccc2[nH]ccc2c1)c1ccccc1
unit_spec: %
observed_measurement: 16.8
--
molecule: COc1cccc(CCN[C@@H](C(=O)Nc2ccccc2C)c2ccccc2)c1
unit_spec: %
observed_measurement: 16.2

====

biological target: Serine/threonine-protein kinase ULK1 (Homo sapiens) (UniProt O75385); assay: Induction of ULK1-mediated autophagy in human SH-SY5Y cells at 1 uM after 6 hrs by MDC-staining based flow cytometric analysis relative to control; assay type: cell-based
Classify on Activity using low (below 20%), medium (20% to below 30%), high (30% or more)

compound: Cc1ccccc1NC(=O)[C@H](NC(=S)Nc1cc(C(F)(F)F)cc(C(F)(F)F)c1)c1ccccc1
group_label: high
--
compound: CN1CCN(CC(OC(=O)c2ccc(-c3ccccc3)cc2)c2ccccc2)CC1 (stereo unspecified)
group_label: low
--
compound: COc1ccc(C(=O)OC(CN2CCN(c3ccc(OC)cc3)CC2)c2ccccc2)cc1 (stereo unspecified)
group_label: low
--
compound: Cc1ccccc1NC(=O)[C@H](NC(=O)Nc1ccccc1Cl)c1ccccc1
group_label: high
--
compound: O=C(Nc1ccc(F)cc1F)[C@H](NCCc1ccc(Br)cc1)c1ccccc1
group_label: medium
--
compound: O=C(Nc1cccc(Cl)c1)N[C@@H](C(=O)Nc1cccc(Br)c1)c1ccccc1
group_label: medium
--
compound: COc1ccc(CCNC(=O)N[C@@H](C(=O)Nc2ccccc2Cl)c2ccccc2)cc1OC
group_label: medium
--
compound: O=C(Nc1ccc(F)cc1F)[C@H](NCCc1cccc2ccccc12)c1ccccc1
group_label: medium
--
compound: Cc1ccccc1NC(=O)[C@H](NC(=O)Nc1cccc2ccccc12)c1ccccc1
group_label: medium
--
compound: COc1ccc(CCNC(=O)N[C@@H](C(=O)Nc2ccc(C)cc2)c2ccccc2)cc1OC
group_label: medium
--
compound: COc1ccc(CCNC(=O)N[C@@H](C(=O)Nc2cccc(Cl)c2)c2ccccc2)cc1OC
group_label: high

====

Biological target: Serine/threonine-protein kinase ULK1 (Homo sapiens) (UniProt O75385)
Sequence (whole entry): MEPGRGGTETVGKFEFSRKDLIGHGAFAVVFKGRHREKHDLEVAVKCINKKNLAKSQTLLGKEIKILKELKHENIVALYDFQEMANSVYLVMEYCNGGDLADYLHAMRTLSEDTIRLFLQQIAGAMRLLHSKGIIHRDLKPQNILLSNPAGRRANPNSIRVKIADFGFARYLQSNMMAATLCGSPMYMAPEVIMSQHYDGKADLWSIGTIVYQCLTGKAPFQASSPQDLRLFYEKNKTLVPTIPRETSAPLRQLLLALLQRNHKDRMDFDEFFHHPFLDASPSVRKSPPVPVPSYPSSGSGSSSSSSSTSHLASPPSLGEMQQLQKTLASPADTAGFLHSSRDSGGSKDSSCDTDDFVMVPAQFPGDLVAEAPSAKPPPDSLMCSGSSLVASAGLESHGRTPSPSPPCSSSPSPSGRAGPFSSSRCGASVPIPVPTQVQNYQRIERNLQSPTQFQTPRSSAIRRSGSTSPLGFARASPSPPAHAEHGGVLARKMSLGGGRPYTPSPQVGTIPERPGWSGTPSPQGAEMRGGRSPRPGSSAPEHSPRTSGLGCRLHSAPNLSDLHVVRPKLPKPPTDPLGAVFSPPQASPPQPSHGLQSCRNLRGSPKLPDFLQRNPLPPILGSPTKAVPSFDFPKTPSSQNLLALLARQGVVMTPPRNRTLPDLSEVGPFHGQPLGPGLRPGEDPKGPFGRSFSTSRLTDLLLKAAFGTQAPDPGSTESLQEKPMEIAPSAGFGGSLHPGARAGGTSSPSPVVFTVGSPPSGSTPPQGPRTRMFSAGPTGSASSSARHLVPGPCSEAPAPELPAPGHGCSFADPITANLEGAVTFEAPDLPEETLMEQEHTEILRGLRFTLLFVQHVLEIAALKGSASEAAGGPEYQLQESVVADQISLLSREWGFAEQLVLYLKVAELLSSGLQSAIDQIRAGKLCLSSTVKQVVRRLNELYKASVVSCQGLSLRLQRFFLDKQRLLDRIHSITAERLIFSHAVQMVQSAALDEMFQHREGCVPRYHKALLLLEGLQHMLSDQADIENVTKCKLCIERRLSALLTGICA
Test: Induction of human recombinant N-terminal GST tagged-ULK1 (1 to 649 residues) kinase activity expressed in baculovirus infected insect Sf9 cells at 100 nM using MBP as substrate after 60 mins by ADP-glo assay relative to control

compound: O=C(Nc1cccc(Cl)c1)N[C@@H](C(=O)Nc1cc(F)ccc1F)c1ccccc1
Activity: 159%

compound: Cc1ccccc1NC(=O)[C@H](NCCc1ccc([N+](=O)[O-])cc1)c1ccccc1
Activity: 142%

compound: CN1CCN(CC(OC(=O)c2ccc(-c3ccccc3)cc2)c2ccccc2)CC1 (stereo not given)
Activity: 142%

compound: COc1ccc(NC(=O)N[C@@H](C(=O)Nc2cccc(Br)c2)c2ccccc2)cc1
Activity: 157%

compound: CN1CCN(CC(OC(=O)c2ccccc2C(F)(F)F)c2ccccc2)CC1 (stereo not given)
Activity: 151%

compound: Cc1ccc(CCN[C@@H](C(=O)Nc2ccccc2C)c2ccccc2)cc1
Activity: 139%

compound: C[C@@H](NC(=O)[C@H](NC(=O)Nc1cccc2ccccc12)c1ccccc1)c1ccccc1
Activity: 149%

compound: CN1CCN(CC(OC(=O)Cc2ccccn2)c2ccccc2)CC1 (stereo not given)
Activity: 143%

compound: COc1ccc(CCNC(=O)N[C@@H](C(=O)Nc2ccc(C)cc2)c2ccccc2)cc1OC
Activity: 148%

compound: COc1ccc(CCNC(=S)N[C@@H](C(=O)Nc2ccccc2)c2ccccc2)cc1OC
Activity: 170%

compound: Cc1ccccc1NC(=O)[C@H](NC(=S)Nc1cc(C(F)(F)F)cc(C(F)(F)F)c1)c1ccccc1
Activity: 205%

compound: CN1CCN(CC(OC(=O)c2ccc3c(c2)OCO3)c2ccccc2)CC1 (stereo not given)
Activity: 197%

compound: Cc1cccc(C)c1NC(=O)N[C@@H](C(=O)Nc1cc(F)ccc1F)c1ccccc1
Activity: 147%

compound: Cc1ccccc1NC(=O)[C@H](NCCc1ccc(F)cc1)c1ccccc1
Activity: 164%

compound: Cc1ccccc1NC(=O)[C@H](NC(=O)Nc1ccc(C(F)(F)F)cc1)c1ccccc1
Activity: 183%
